# assay overview: Phase 1a multiple ascending dose study (oral solution): plasma pharmacokinetics
# Assay type: in vivo, human
# assay conditions: human, plasma, oral, 240 mg, Cohort 3, 240 mg; Day 1; Hour 3; read-out: Compound 1 concentration, Conc (SD)

| entry smiles | units text | concentration at 3 h |
| --- | --- | --- |
| CC(C)(C)OC(=O)N1CCN(Cc2ccn(Cc3ccc(Cl)cc3)c(=O)c2O)CC1 | ng/mL | 5.97 |

----------
# assay overview: Phase 1a single ascending dose study (oral solution): plasma pharmacokinetics
# Format: in vivo
# assay conditions: male, human, 120 mg, Cohort 3, 120 mg single oral dose (2.4 mg/mL, 50 mL), read-out: AUClast, mean (SD)

| entry smiles | AUC(0-t) |
| --- | --- |
| CC(C)(C)OC(=O)N1CCN(Cc2ccn(Cc3ccc(Cl)cc3)c(=O)c2O)CC1 | 32.3 ng·h/mL |

----------
# assay overview: Phase 1a multiple ascending dose study (oral solution): plasma pharmacokinetics
# Format: in vivo, human
# assay conditions: human, plasma, oral, 60 mg, Cohort 5, 60 mg; Day 1; Hour 4; read-out: Compound 1 concentration, Conc (SD)

| entry smiles | concentration at 4 h / ng/mL |
| --- | --- |
| CC(C)(C)OC(=O)N1CCN(Cc2ccn(Cc3ccc(Cl)cc3)c(=O)c2O)CC1 | 0 |

----------
# assay overview: Phase 1a multiple ascending dose study: Compound 1 in fecal samples
# Assay type: in vivo, human
# assay conditions: human, feces, oral, Day 1; read-out: Mean recovery of Compound 1 in feces, range across cohorts
# Method: Fecal samples were collected, when possible, over 24 hours (0-24 hours) post administration on Day 1 and Day 7; the absolute amount of Compound 1 measured (mg) is shown Table 48.

| entry smiles | dose excreted |
| --- | --- |
| CC(C)(C)OC(=O)N1CCN(Cc2ccn(Cc3ccc(Cl)cc3)c(=O)c2O)CC1 | 5 to 22% |

----------
# assay overview: Phase 1a multiple ascending dose study (oral solution): plasma pharmacokinetics
# Format: in vivo, human
# assay conditions: human, plasma, oral, 60 mg, Cohort 5, 60 mg; Day 1; Hour 24; read-out: Compound 1 concentration, Conc (SD)
measurement kind: concentration at 24 h (ng/mL)

| entry smiles | measurement kind | observed result |
| --- | --- | --- |
| CC(C)(C)OC(=O)N1CCN(Cc2ccn(Cc3ccc(Cl)cc3)c(=O)c2O)CC1 | concentration at 24 h | 0 |

----------
# assay overview: Phase 1a single ascending dose study (oral solution): plasma pharmacokinetics
# Format: in vivo
# assay conditions: male, human, 60 mg, Cohort 2, 60 mg single oral dose (1.2 mg/mL, 50 mL), read-out: AUClast, mean (SD)
measurement kind: AUC(0-t) (ng·h/mL)

| entry smiles | units text | observed result |
| --- | --- | --- |
| CC(C)(C)OC(=O)N1CCN(Cc2ccn(Cc3ccc(Cl)cc3)c(=O)c2O)CC1 | ng·h/mL | 14.2 |

----------
# assay overview: Phase 1a multiple ascending dose study (oral solution): plasma pharmacokinetics
# Type: in vivo, human
# assay conditions: human, plasma, oral, 240 mg, Cohort 3, 240 mg once daily; Day 7; Hour 24; read-out: Compound 1 concentration, Conc (SD)

| compound | concentration at 24 h |
| --- | --- |
| CC(C)(C)OC(=O)N1CCN(Cc2ccn(Cc3ccc(Cl)cc3)c(=O)c2O)CC1 [Compound 1] | 2.53 ng/mL |
